Test system: LOX IMVI melanoma
Measurement Protocol: NCI-60 one-dose screen, 48 h (100 = growth as untreated, 0 = no growth, -100 = all killed)
Conditions Used: 10 µM unless noted
This is part of a sample that, as a whole, favours compounds with a hit. Of some 83,000 tested, about 20% had one in any assay.
Readings of growth for the listed compounds
Expressed in %, but write only the number.

Enquiry: Value wanted: growth (LOX IMVI melanoma) of entry O=C(/C=C/c1cccc(Cl)c1Cl)Nc1ncc(Cc2ccccc2Cl)s1
Return: 44.7

Enquiry: Value wanted: growth (LOX IMVI melanoma) of entry C#CCO[C@H]1CC(CC#C)(CC#C)C(=O)[C@@H]2[C@H]1[C@H]1C[C@@H]3[C@@]4(C)CCC[C@@](C)(C(=O)OC)[C@@H]4CC[C@@]23C=C1C(C)C
Return: -86.6

Enquiry: Value wanted: growth (LOX IMVI melanoma) of entry Cc1ccc(CNc2c3ccccc3nc3ccccc23)cc1
Return: 11.8

----------
Test system: RXF 393 renal
Measurement Protocol: NCI-60 one-dose screen, 48 h
Conditions Used: 10 µM unless noted
About 83,000 compounds went through this panel and 20% of them were active in at least one assay; those are over-represented in the sample as a whole. Calls of active or inactive are those of the source. How the source made its calls: active means growth percent below 10; inactive means the rest.
Could you please pick one outcome from this set? 1 = active, 0 = inactive

• Fc1cccc(-c2ccc3c(c2)C2(CCNCC2)CN3)c1 = 0
• COC1=C(C)C(=O)N2[C@@H]1[C@H](c1ccccc1)OC21C=CC(=O)C=C1 = 1
• CN(C)c1ccc(-c2nc(-c3ccccc3)c(-c3ccccc3)[nH]2)cc1 = 0
• NC(=O)c1c(NC(=O)c2cccs2)sc2c1CCC(=O)C2 = 0
• CC1(C)CC[C@]23CC[C@]4(C)[C@H](CC[C@@H]5[C@@]6(C)C/C(=C/c7ccncc7)C(=O)C(C)(C)[C@@H]6CC[C@]54C)[C@H]2[C@H]1OC3 = 0
• CCOC(=O)C1=C(C)C(Cl)=N/C1=C\c1[nH]c(Cl)c(C)c1C(=O)OCC = 0

Enquiry: For C=C1CC[C@@H]2C(C)(C)[C@@H](O)CC[C@@]2(C)[C@@H]1COc1ccc2ccc(=O)oc2c1 , what call appears in the results of this test?
Return: 0

Enquiry: For CCN1CCN(c2cc(C)nc(N(CCNc3ccnc4cc(Cl)ccc34)Cc3ccc4c(c3)OCO4)n2)CC1 , what call appears in the results of this test?
Return: 1

Enquiry: For CCNc1ccc(-c2nc3ccccc3n3cccc23)cc1 , what call appears in the results of this test?
Return: 0

----------
Tested on: OVCAR-5 ovarian
Measurement Protocol: NCI-60 one-dose screen, 48 h
Conditions Used: 10 µM unless noted
The panel holds about 83,000 compounds, 20% with a hit somewhere; the sample as a whole holds those more often. The source made the active and inactive calls. How the source made its calls: active means growth percent below 10; inactive means the rest.
Could you please pick one outcome from this set? 1 = active, 0 = inactive

See these solved cases before continuing.
• CCN1CCN(C(=O)[C@]23CC[C@@H](C)[C@H](C)[C@@H]2C2=CC[C@@H]4[C@@]5(C)C/C(=C/c6cccnc6)C(=O)C(C)(C)[C@@H]5CC[C@@]4(C)[C@]2(C)CC3)CC1 = 0
• O=C(C1CCCCC1)[C@@H]1[C@]2(C(=O)NC3CCCCC32)[C@@H]2CCCN2[C@@]12C(=O)NC1CCC(Cl)CC12 (stereo partly specified) = 1
• CCNc1nc(O)c(/C=C2\C=Nc3ncccc32)s1 = 1
• N#CC1CCc2c(c(-c3ccc4nc(N)sc4c3)nc3ccc4[nH]ncc4c23)C1 (stereo unspecified) = 0
• CCOc1cccc(/C=N/NC(=O)c2cccc(Nc3ccnc(C(F)(F)F)c3)c2)c1O = 0
• COc1cc(/C=C/C(=O)/C=C(O)/C=C/c2ccc(OC(=O)C34CC5CC(CC(C5)C3)C4)c(OC)c2)ccc1OC(=O)C12CC3CC(CC(C3)C1)C2 = 0

Enquiry: For COc1ccc(-c2nn(-c3ccccc3)cc2/C=C/C(=O)NNC(=O)Nc2ccc(C)cc2)cc1 , what call appears in the results of this test?
Return: 0

Enquiry: For COc1ccc(/C=C2\COc3ccc(O)cc3C2=O)cc1 , what call appears in the results of this test?
Return: 0

Enquiry: For CO[C@H](C(=O)[C@@H](O)[C@@H](C)O)[C@@H]1Cc2cc3cc(O[C@H]4C[C@@H](O[C@H]5C[C@@H](O)[C@H](O)C(C)O5)[C@H](O)C(C)(O)O4)cc(O)c3c(O)c2C(=O)[C@H]1O[C@H]1C[C@@H](O[C@H]2C[C@@H](O[C@H]3C[C@@H](OC)[C@H](O)C(C)O3)[C@@H](O)C(C)O2)[C@H](O)C(C)O1 (stereo partly specified) , what call appears in the results of this test?
Return: 0

Enquiry: For N#C/C(=C\c1ccc([N+](=O)[O-])cc1)n1nnc2cc(F)c(F)cc21 , what call appears in the results of this test?
Return: 0

Enquiry: For O=[N+]([O-])c1ccc(-c2cn3nc(-c4c[nH]c5ccccc45)sc3n2)cc1 , what call appears in the results of this test?
Return: 0

Enquiry: For CC(C)N1C(=O)/C(=c2\sc3n(c2=O)C2C(NN=3)N(C)C(=O)N2C)c2ccccc21 (stereo unspecified) , what call appears in the results of this test?
Return: 0

Enquiry: For C[n+]1ccc(CCc2c[nH]c3ccccc23)cc1 , what call appears in the results of this test?
Return: 0

----------
System: HT29 colon
Measurement Protocol: NCI-60 one-dose screen, 48 h (100 = growth as untreated, 0 = no growth, -100 = all killed)
Conditions Used: 10 µM unless noted
About 83,000 compounds went through this panel and 20% of them were active in at least one assay; those are over-represented in the sample as a whole.
Readout Label: growth (%)
Expressed in %, but write only the number.

Known results for compounds:
• C=C(C)[C@@H]1CCC[C@]2(C(=O)N3CCN(C)CC3)CC[C@]3(C)[C@@H](CC[C@@H]4[C@@]5(C)CC/C(=N\NC(=O)c6ccncc6)C(C)(C)[C@@H]5CC[C@]43C)[C@@H]12 = 98.8
• COc1ccc(Oc2nc(Nc3ccc(N4CCOCC4)cc3)ncc2NC(=O)Nc2cc(OC)cc(OC)c2)cc1 = -32.8
• CCCCNC(=O)Oc1ccc(/C(=C(/C)Cc2ccc(OC)cc2)c2ccc(OCCN3CCCCC3)cc2)cc1 = 2.86
• FC(F)(F)c1ccc(Cn2cc(CSc3nc4ccccc4s3)nn2)cc1 = 94.4

Note: attention shifts to another entry.
Enquiry: // lookup growth for CC1(C)N=C(N)N=C(N)N1c1ccc(CCCCc2ccccc2)c(Cl)c1
Return: -11.2

----------
Test system: K-562 leukemia
Measurement Protocol: NCI-60 one-dose screen, 48 h (100 = growth as untreated, 0 = no growth, -100 = all killed)
Conditions Used: 10 µM unless noted
This is part of a sample that, as a whole, favours compounds with a hit. Of some 83,000 tested, about 20% had one in any assay.
I'd appreciate it if you could label each record using growth and these ranges: bottom (below 20%), middle (20% to below 60%), top (60% or more)

See these solved cases before continuing.
• CC/C=C\C[C@H](O)C/C=C1/C(=O)C=C[C@@H]1C/C=C\CCCC(=O)O = bottom
• CN1C(=O)/C(=C/c2ccc(C(=O)Nc3ncc(Cc4cccc(Cl)c4)s3)cc2)SC1=S = middle
• CCOC(=O)c1c(C)nc2ccccc2c1/C=C/c1ccccc1 = middle
• O=C1/C(=C/c2ccc(O)c(O)c2)COc2ccc(-c3ccccc3)cc21 = bottom
• O=C1c2ccccc2C(=O)C1c1ccc(Br)cc1 = top
• Cc1ccc2c(=O)cc(C(=O)Nc3sc4c(c3C(=O)NCc3cccnc3)CCCC4)oc2c1C = top
• C=C1C(=O)O[C@H]2[C@H]1CC/C(COC(=O)c1cc3cc(Cl)ccc3[nH]1)=C\CC[C@@]1(C)O[C@@H]21 = bottom
• O=C(O)c1cn(C2CC2)c2cc(N3CCN(C(=O)Nc4nc(-c5ccc(Br)cc5)cs4)CC3)c(F)cc2c1=O = bottom

Please turn your attention to the following entry.
Enquiry: Dear colleague, I would appreciate it if you could identify the bin for COc1ccc(C(O)c2cc3c(N)c(C(=O)Nc4cccc(Cl)c4C)sc3nc2C)cc1 (centres undefined) and reply at your convenience.
Return: bottom

----------
Tested on: SR leukemia
Measurement Protocol: NCI-60 one-dose screen, 48 h (100 = growth as untreated, 0 = no growth, -100 = all killed)
Conditions Used: 10 µM unless noted
This is part of a sample that, as a whole, favours compounds with a hit. Of some 83,000 tested, about 20% had one in any assay.
// label = true if growth is not less than 20%, otherwise false

See these solved cases before continuing.
* O=C(Nc1ncc(Cc2ccccc2)s1)c1ccc2c(c1)OCCCO2 | false
* [2H]C([2H])([2H])Oc1ccc(F)cc1/C=C/C(=O)/C=C(/C=C/c1cc(F)ccc1OC([2H])([2H])[2H])OB(F)F | true
* CCN(CC)CCN1C(=O)c2cccc3c(/C=C/CN4C(=O)c5cccc6cccc(c56)C4=O)ccc(c23)C1=O | true
* NC(=O)c1cccc([C@@H]2O[C@H](CO)[C@@H](O)[C@H]2O)c1 | true
* C=C(C)[C@@H]1CC[C@]2(COC(C)=O)CC[C@]3(C)[C@H](CC[C@@H]4[C@@]5(C)CCCN(C(C)=O)C(C)(C)[C@@H]5CC[C@]43C)[C@@H]12 | false
* C/C(Cc1ccc(Cl)cc1)=C(\c1ccc(OCCCN(C)C)cc1)c1ccc(OC(=O)Cc2ccccc2)cc1 | true
* CCN(CC)CCCN1C(=O)c2c(c(C)c3c(oc4ccc(O)cc43)c2C)C1=O | false

Enquiry: Has O=C1/C(=C/c2ccc(F)cc2)CN(C(=O)C(Cl)Cl)C/C1=C\c1ccc(F)cc1 a recorded growth greater than or equal to 20%?
Return: false
